Hey, just so you know, these numbers are from patent US5866540A.

target: αIIbβ3 (Homo sapiens, UniProt P05106+P08514); test: Solid-phase receptor binding ELISA: competition with biotinylated fibrinogen on coated integrin receptor; conditions: ligand biotinylated fibrinogen 1 μg/ml; receptor coated at 1 μg/ml; 3 h at 30° C.; triplicates
Where a SMILES comes first, the peptide text is derived from it. [ ]: non-standard residue; d: D form.
Heads up, the class ranges for IC50 are bottom = under 0.7 µM, middle = from 0.7 µM up to 2 µM, top = 2 µM and over

CC(C)[C@@H]1NC(=O)[C@H](Cc2ccccc2)NC(=O)[C@H](CC(=O)O)NC(=O)CNC(=O)[C@@H](CCCNC(=N)N)NC(=O)[C@H](C)NC1=O [cyclo(--D--Arg--Gly--Asp--Phe--Val--Ala), cyclo(-D-Arg-Gly-Asp-Phe-Val-Ala)] (cyclo([dR]GDFVA)) : top
CC(C)[C@@H]1NC(=O)[C@@H](Cc2ccccc2)NC(=O)[C@H](CC(=O)O)NC(=O)[C@H](C)NC(=O)[C@H](CCCN=C(N)N)NC1=O [cyclo(--Arg--Ala--Asp--D--Phe--Val), cyclo(-Arg-Ala-Asp-D-Phe-Val)] (cyclo(AD[dF]VR)) : top
N=C(N)NCCC[C@@H]1NC(=O)CNC(=O)[C@@H]2CCCN2C(=O)[C@H](Cc2ccccc2)NC(=O)[C@H](CC(=O)O)NC(=O)CNC1=O [cyclo(--Arg--Gly--Asp--Phe--Pro--Gly), cyclo(-Arg-Gly-Asp-Phe-Pro-Gly)] (cyclo(RGDFPG)) : middle
CC(C)[C@@H]1NC(=O)[C@H](Cc2ccccc2)NC(=O)[C@H](CC(=O)O)NC(=O)CNC(=O)[C@H](CCCNC(=N)N)NC(=O)[C@@H](C)NC1=O [cyclo(--Arg--Gly--Asp--Phe--Val--D--Ala), cyclo(-Arg-Gly-Asp-Phe-Val-D-Ala)] (cyclo(RGDFV[dA])) : middle
CC(C)C[C@@H]1NC(=O)[C@@H](Cc2ccccc2)NC(=O)[C@H](CC(=O)O)NC(=O)CNC(=O)[C@H](CCCNC(=N)N)NC(=O)CNC1=O [cyclo(--Arg--Gly--Asp--D--Phe--Leu--Gly), cyclo(-Arg-Gly-Asp-D-Phe-Leu-Gly)] (cyclo(GRGD[dF]L)) : bottom

Hi there! Could you help me figure out the category for C[C@@H]1NC(=O)[C@H]2CCCN2C(=O)[C@H](Cc2ccccc2)NC(=O)[C@H](CC(=O)O)NC(=O)CNC(=O)[C@H](CCCNC(=N)N)NC1=O [cyclo(--Arg--Gly--Asp--Phe--D--Pro--Ala), cyclo(-Arg-Gly-Asp-Phe-D-Pro-Ala)] (cyclo(RGDF[dP]A)) please?
middle

Place this molecule in its band: CC(C)[C@@H]1NC(=O)[C@H](Cc2ccccc2)NC(=O)[C@H](CC(=O)O)NC(=O)[C@@H](C)NC(=O)[C@H](CCCNC(=N)N)NC1=O [cyclo(--Arg--D--Ala--Asp--Phe--Val), cyclo(-Arg-D-Ala-Asp-Phe-Val)] (cyclo(R[dA]DFV))
top

In plain terms, what class is CC(C)C[C@@H]1NC(=O)[C@H](Cc2ccccc2)NC(=O)[C@H](CC(=O)O)NC(=O)CNC(=O)[C@H](CCCNC(=N)N)NC(=O)[C@@H](C)NC1=O [cyclo(--Arg--Gly--Asp--Phe--Leu--D--Ala), cyclo(-Arg-Gly-Asp-Phe-Leu-D-Ala)] (cyclo(RGDFL[dA])) ?
middle

Bin this entry: CC(C)[C@@H]1NC(=O)[C@H](Cc2ccccc2)NC(=O)[C@H](CC(=O)O)NC(=O)CNC(=O)[C@@H](CCCNC(=N)N)NC(=O)CNC1=O [cyclo(--D--Arg--Gly--Asp--Phe--Val--Gly), cyclo(-D-Arg-Gly-Asp-Phe-Val-Gly)] (cyclo(G[dR]GDFV))
top

Band for CC(C)[C@@H]1NC(=O)[C@@H](Cc2ccccc2)NC(=O)[C@H](CC(=O)O)NC(=O)CNC(=O)[C@H](CCCNC(=N)N)NC(=O)CNC1=O [cyclo(--Arg--Gly--Asp--D--Phe--Val--Gly), cyclo(-Arg-Gly-Asp-D-Phe-Val-Gly)] (cyclo(RGD[dF]VG)) ?
bottom

Note: place this molecule into its band. Item: C[C@@H]1NC(=O)[C@@H]2CCCN2C(=O)[C@H](Cc2ccccc2)NC(=O)[C@H](CC(=O)O)NC(=O)CNC(=O)[C@H](CCCNC(=N)N)NC1=O [cyclo(--Arg--Gly--Asp--Phe--Pro--Ala), cyclo(-Arg-Gly-Asp-Phe-Pro-Ala)] (cyclo(RGDFPA))
bottom

The entry to classify is CC(C)C[C@@H]1NC(=O)[C@@H](Cc2ccccc2)NC(=O)[C@H](CC(=O)O)NC(=O)CNC(=O)[C@H](CCCNC(=N)N)NC(=O)[C@H](C)NC1=O [cyclo(--Arg--Gly--Asp--D--Phe--Leu--Ala), cyclo(-Arg-Gly-Asp-D-Phe-Leu-Ala)] (cyclo(ARGD[dF]L)) ; which class holds it?
middle

====

target: αIIbβ3 (Homo sapiens, UniProt P05106+P08514); experiment: Solid-phase receptor binding ELISA: competition with biotinylated fibrinogen on coated integrin receptor; conditions: ligand biotinylated fibrinogen 1 μg/ml; receptor coated at 1 μg/ml; 3 h at 30° C.; triplicates
Where a SMILES comes first, the peptide text is derived from it. [ ]: non-standard residue; d: D form.
Value Type: IC50 (µM)
// note: answer is a bare numeric in µM

CC(C)[C@@H]1NC(=O)[C@@H](Cc2ccccc2)NC(=O)[C@H](CC(=O)O)NC(=O)CNC(=O)[C@H](CCCNC(=N)N)NC(=O)[C@H](C)NC1=O [cyclo(--Arg--Gly--Asp--D--Phe--Val--Ala), cyclo(-Arg-Gly-Asp-D-Phe-Val-Ala)] (cyclo(RGD[dF]VA)) : 0.32

Then this molecule:
# query: IC50 of entry N=C(N)NCCC[C@@H]1NC(=O)CNC(=O)[C@H]2CCCN2C(=O)[C@H](Cc2ccccc2)NC(=O)[C@H](CC(=O)O)NC(=O)CNC1=O [cyclo(--Arg--Gly--Asp--Phe--D--Pro--Gly)] (cyclo(RGDF[dP]G))
1.5

====

Target: αvβ3 (Homo sapiens, UniProt P05106+P06756)
Assay: Solid-phase receptor binding ELISA: competition with biotinylated fibrinogen on coated integrin receptor
Conditions: ligand biotinylated fibrinogen 1 μg/ml; receptor coated at 1 μg/ml; 3 h at 30° C.; triplicates
Protocol: The effect was found by using the method of J. W. Smith, Z. M. Ruggei, T. J. Kunicki and D. A. Cheesh descibed in J. Biol. Chem. 265, 12 267-12 271 (1990). Details of the method are as follows: A ninety six well untreated flat bottom plate was coated with 100 μl/well of 1 μg/ml receptor (αIIβe; αVβ3) in coating buffer and incubated on a shaker at 4° C. overnight. […] The reaction was stopped by addition of 100 μl/well of 0.4M NaOH and read in the ELISA reader at 405 nm. […]
Where a SMILES comes first, the peptide text is derived from it. [ ]: non-standard residue; d: D form.
Value Type: IC50
The reply should consist of the numeric value with the unit placed after it.

Consider the following illustrative entries.
N=C(N)NCCC[C@@H]1NC(=O)CNC(=O)[C@@H]2CCCN2C(=O)[C@H](Cc2ccccc2)NC(=O)[C@H](CC(=O)O)NC(=O)CNC1=O [cyclo(--Arg--Gly--Asp--Phe--Pro--Gly), cyclo(-Arg-Gly-Asp-Phe-Pro-Gly)] (cyclo(RGDFPG)) : 0.16 µM
N=C(N)NCCC[C@@H]1NC(=O)CNC(=O)[C@H]2CCCN2C(=O)[C@H](Cc2ccccc2)NC(=O)[C@H](CC(=O)O)NC(=O)CNC1=O [cyclo(--Arg--Gly--Asp--Phe--D--Pro--Gly)] (cyclo(RGDF[dP]G)) : 1.06 µM
C[C@@H]1NC(=O)[C@H]2CCCN2C(=O)[C@H](Cc2ccccc2)NC(=O)[C@H](CC(=O)O)NC(=O)CNC(=O)[C@H](CCCNC(=N)N)NC1=O [cyclo(--Arg--Gly--Asp--Phe--D--Pro--Ala), cyclo(-Arg-Gly-Asp-Phe-D-Pro-Ala)] (cyclo(RGDF[dP]A)) : 0.37 µM

Now look at this one.
Look up IC50 for this molecule: CC(C)[C@@H]1NC(=O)[C@H](Cc2ccccc2)NC(=O)[C@H](CC(=O)O)NC(=O)CNC(=O)[C@H](CCCNC(=N)N)NC(=O)[C@@H](C)NC1=O [cyclo(--Arg--Gly--Asp--Phe--Val--D--Ala), cyclo(-Arg-Gly-Asp-Phe-Val-D-Ala)] (cyclo(RGDFV[dA]))
0.25 µM
